The reported measurements were obtained from PubChem BioAssay (NCI).

Reported values of growth for individual entries
test system: CCRF-CEM leukemia; assay: NCI-60 one-dose screen, 48 h (100 = growth as untreated, 0 = no growth, -100 = all killed); conditions: 10 µM unless noted
Compounds without any hit were thinned out: in the full panel of roughly 83,000, 20% have a hit.
Reply with just the number (in %).

Example entries begin here.
{"compound": "COc1cccc(-c2nn(-c3ccccc3)cc2-c2ccnc(NCCCNC(=O)c3ccccc3)c2)c1", "growth, %": 27.7}
{"compound": "CC(=O)n1c(-c2ccc(Cl)cc2)nc2c(c1=O)C(c1ccc(Cl)cc1)c1sc3c(Cl)cccc3c1O2 (stereo not drawn)", "growth, %": -4.47}
{"compound": "CCOc1ccccc1-n1c(CN2CCN(C(=O)COc3ccc(CNCCCCCCN4C5CCCC4CC(OC(=O)Nc4cc(C)ccc4OC)C5)cc3)CC2)nc2ccccc2c1=O (stereo not drawn)", "growth, %": -64.9}
{"compound": "Cc1cc(NCCCCNc2ccnc3cc(Cl)ccc23)nc(Nc2ccc(C(=O)N3CCCCC3)cc2)n1", "growth, %": -20}
{"compound": "Cc1ccc(-n2nc3c(c(C#N)c2=O)CC(c2ccccc2Cl)C([N+](=O)[O-])=C3O)cc1 (stereo not drawn)", "growth, %": 84.3}

Task: Fill blank: measured growth of the compound Cc1c(C(=O)NC(Cc2ccccc2)C(O)C(=O)NCc2ccc(F)cc2)[nH]c2ccccc2c1=O (stereo not drawn) is ____.
Result: 109

Task: // query: "Cc1c(C(=O)OC(=NC2CCCCC2)NC2CCCCC2)sc2c1c(=O)nc1c(C#N)n[nH]n12"
Result: 300

Task: // query: "C[C@@H]1N=C(c2ccc3ccccc3n2)Nc2nc3ccccn3c2C1=O"
Result: 115

* * *

system: UACC-257 melanoma; test: NCI-60 one-dose screen, 48 h (100 = growth as untreated, 0 = no growth, -100 = all killed); settings: 10 µM unless noted
The panel holds about 83,000 compounds, 20% with a hit somewhere; the sample as a whole holds those more often.
Reported values of growth for individual entries
Reply with just the number (in %).

Example entries begin here.
{"molecule": "COc1ccc(-c2nc(SC(C)C)nc(NNC(N)=S)c2C#N)cc1", "units_label": "%", "growth": 82.7}
{"molecule": "CCCCCCN(CCCCCC)c1ccc(/C=C2/SC(=O)N(c3nc(N4CCCC4)nc(N4CCCC4)n3)C2=O)c(C)c1", "units_label": "%", "growth": 72.6}
{"molecule": "COC(=O)CCC1=C(C)C2=NC1=CC1=NC(=CC3=NC(=Cc4[nH]c(/c(=C(/C)O)c4C)=C2)C(C(C)=O)=C3C)C(C)=C1CCC(=O)OC", "units_label": "%", "growth": 90.3}
{"molecule": "CN1CCN(CC(=O)Nc2nc(-c3cccc(NS(=O)(=O)c4cccc5c(N(C)C)cccc45)c3)cs2)CC1", "units_label": "%", "growth": 91.2}
{"molecule": "CC/C=C\\C/C=C\\C[C@H](O)C/C=C1/C(=O)C=C[C@@H]1C/C=C\\CCCC(=O)O", "units_label": "%", "growth": 31.3}
{"molecule": "Cc1ccc(-c2cc3c(cc2O)C2CCCCC2(N2CCOCC2)O3)cc1 (centres undefined)", "units_label": "%", "growth": 102}
{"molecule": "COc1cc2c(cc1-c1c(C)noc1C)ncc1nc(C3CCCCC3)n(C3CCC(OC(F)F)CC3)c12 (centres undefined)", "units_label": "%", "growth": 40.3}
{"molecule": "O=[N+]([O-])c1ccc(Sc2cccc[n+]2[O-])c2nonc12", "units_label": "%", "growth": 91.5}

With those in mind, consider the next molecule.
Task: Fill blank: measured growth of the molecule "C=CCSc1nc2ccccc2cc1/C=N/O" is ____.
Result: 87.6
